# study target: CB1 (Rattus norvegicus, UniProt P20272)
# Construct: membrane preparations from rat brain (source of CB1); tissue Bioivt RAT00BRAINMZN; host or cells: rat brain
# Sequence (P20272 whole entry): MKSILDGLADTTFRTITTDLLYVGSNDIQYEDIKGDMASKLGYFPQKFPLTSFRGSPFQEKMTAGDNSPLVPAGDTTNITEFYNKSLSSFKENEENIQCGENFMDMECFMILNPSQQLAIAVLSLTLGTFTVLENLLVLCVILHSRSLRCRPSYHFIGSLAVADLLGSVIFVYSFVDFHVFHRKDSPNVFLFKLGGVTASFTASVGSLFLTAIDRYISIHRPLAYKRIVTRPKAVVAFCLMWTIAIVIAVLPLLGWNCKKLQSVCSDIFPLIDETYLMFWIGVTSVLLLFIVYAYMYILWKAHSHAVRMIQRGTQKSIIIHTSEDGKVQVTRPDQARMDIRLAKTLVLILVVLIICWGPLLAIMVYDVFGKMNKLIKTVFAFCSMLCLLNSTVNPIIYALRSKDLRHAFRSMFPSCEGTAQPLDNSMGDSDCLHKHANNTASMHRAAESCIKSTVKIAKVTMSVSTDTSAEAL
# assay summary: Radioligand competition binding with [3H]-CP-55,940, rat brain membranes
# condition parameters: maximal radioligand displacement; read-out: rCB1 binding Emax [SEM]
# Procedure: The results were analyzed using nonlinear regression to determine the IC50 and Ki values for each ligand (Prism by GraphPad Software, Inc., San Diego, CA). The Ki values are expressed as the mean of two to three experiments each performed in triplicate.
So I've got a bunch of molecules here, and I need their Emax values.
Quick note: give the figure in %, leave out the unit.

Lookup result for Cc1cc(C(=O)NC(c2ccccc2)c2ccco2)nn1-c1cccc(C(F)(F)F)c1 (stereo not drawn) [‘1081] ; measured Emax: 96

Lookup result for CC(=O)C(c1cccs1)N(C)C(=O)c1cc(C)n(-c2cccc(C(F)(F)F)c2)n1 (stereo not drawn) [‘6829] ; measured Emax: 106

Lookup result for Cc1cc(C(=O)NC(c2ccccc2)c2ccco2)nn1-c1cccc(C#N)c1 (stereo not drawn) [‘12565] ; measured Emax: 97

Lookup result for COC(=O)[C@@](C)(NC(=O)c1cc(C)n(-c2cccc(C(F)(F)F)c2)n1)c1cccs1 [‘1350] ; measured Emax: 106

Lookup result for COC(=O)C(NC(=O)c1cc(C)n(-c2cccc(C#N)c2)n1)c1ccsc1 (stereo not drawn) [‘31604] ; measured Emax: 100

Lookup result for CC(=O)C(C)(NC(=O)c1cc(C)n(-c2cccc(C(F)(F)F)c2)n1)c1cccs1 (stereo not drawn) [‘4156] ; measured Emax: 91

Lookup result for COC(=O)[C@](C)(NC(=O)c1cc(C)n(-c2cccc(C(F)(F)F)c2)n1)c1cccs1 [‘8690] ; measured Emax: 100

Lookup result for Cc1cc(C(=O)NC(c2ccco2)c2ccco2)nn1-c1cccc(C(F)(F)F)c1 [‘1090] ; measured Emax: 99

Lookup result for Cc1cc(C(=O)NC(C)(c2ccccc2)c2ccco2)nn1-c1cccc(C(F)(F)F)c1 (stereo not drawn) [‘5806] ; measured Emax: 100
